Where do the numbers come from? From patent US10925971B2.

Biological target: Macaca fascicularis PRLR (mfPRLR.mmh; SEQ ID NO:403)
Sequence (as listed by the source): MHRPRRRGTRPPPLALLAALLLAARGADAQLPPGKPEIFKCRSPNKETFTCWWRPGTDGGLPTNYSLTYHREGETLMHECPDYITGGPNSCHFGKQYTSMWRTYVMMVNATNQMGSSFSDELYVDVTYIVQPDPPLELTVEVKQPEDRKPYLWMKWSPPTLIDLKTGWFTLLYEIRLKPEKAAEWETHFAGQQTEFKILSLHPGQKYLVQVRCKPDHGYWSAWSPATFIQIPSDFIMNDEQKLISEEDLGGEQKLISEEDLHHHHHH
Experiment: Surface plasmon resonance (Biacore T200), antibody-capture format
Assay type: binding
Conditions: 25° C., analyte mfPRLR.mmh
Protocol: Antibodies, expressed as human IgG1 Fc (i.e., “H1H” designations), were captured onto an anti-human Fc sensor surface (mAb-capture format), and soluble monomeric (hPRLR.mmh; SEQ ID NO:401, or Macaca fascicularis (mf) PRLR.mmh; SEQ ID NO:403) or dimeric (hPRLR.mFc; SEQ ID NO:402) PRLR protein was injected over the sensor surface. Measurements were conducted on a T200 Biacore instrument. […]
The reader will find reported kd values listed item by item below.
Please respond with the number in s⁻¹ and leave the unit unwritten.

Worked cases, answers included:
* H1H6959N2: anti-PRLR antibody, human IgG1 Fc form of H2M6959N2 of Table 1; HCVR/LCVR SEQ ID NOs 306/314 (antibody, V domains shown) VH: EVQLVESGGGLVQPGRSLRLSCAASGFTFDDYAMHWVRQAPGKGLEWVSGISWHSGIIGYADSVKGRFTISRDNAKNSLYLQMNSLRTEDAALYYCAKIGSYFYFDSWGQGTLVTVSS VL: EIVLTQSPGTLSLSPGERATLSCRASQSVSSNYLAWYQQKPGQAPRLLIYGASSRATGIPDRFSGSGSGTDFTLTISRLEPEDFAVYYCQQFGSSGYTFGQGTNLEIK | 0.0167
* H1H6762P: fully human anti-PRLR antibody, human IgG1 Fc; HCVR/LCVR SEQ ID NOs 2/10 (antibody, V domains shown) VH: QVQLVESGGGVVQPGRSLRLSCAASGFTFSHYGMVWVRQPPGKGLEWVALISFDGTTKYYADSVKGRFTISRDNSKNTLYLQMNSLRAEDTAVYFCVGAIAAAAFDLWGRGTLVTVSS VL: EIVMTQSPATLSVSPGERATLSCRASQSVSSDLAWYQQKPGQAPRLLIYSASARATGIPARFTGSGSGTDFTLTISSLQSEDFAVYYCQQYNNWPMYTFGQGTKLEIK | 0.000208
* H1H6774P: fully human anti-PRLR antibody, human IgG1 Fc; HCVR/LCVR SEQ ID NOs 34/42 (antibody, V domains shown) VH: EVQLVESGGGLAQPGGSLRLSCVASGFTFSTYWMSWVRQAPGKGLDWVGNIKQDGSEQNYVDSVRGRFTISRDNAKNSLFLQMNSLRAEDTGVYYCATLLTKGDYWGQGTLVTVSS VL: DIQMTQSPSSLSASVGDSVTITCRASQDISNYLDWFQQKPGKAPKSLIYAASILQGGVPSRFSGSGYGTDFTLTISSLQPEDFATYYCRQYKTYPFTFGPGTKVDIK | 0.000875

Prompt line: Look up and state reported kd for H1H6790P: fully human anti-PRLR antibody, human IgG1 Fc; HCVR/LCVR SEQ ID NOs 114/122 (antibody, V domains shown) VH: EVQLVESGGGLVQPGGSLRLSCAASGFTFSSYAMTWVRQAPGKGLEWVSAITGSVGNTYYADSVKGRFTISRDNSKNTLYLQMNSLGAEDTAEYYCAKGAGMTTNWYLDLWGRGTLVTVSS VL: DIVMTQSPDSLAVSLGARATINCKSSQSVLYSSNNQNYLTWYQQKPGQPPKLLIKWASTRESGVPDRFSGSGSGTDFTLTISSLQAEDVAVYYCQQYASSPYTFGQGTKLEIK
Response line: 0.000793
